# Test system: Escherichia coli
# assay protocol: Relative sensitizing activity against Escherichia coli was determined as a percent of pPMBN (50 ug/mL) as a control
# Format: functional

smiles string	Activity, %
CC(C)C[C@@H]1NC(=O)[C@@H](Cc2ccccc2)NC(=O)[C@H](CN)NC(=O)[C@@H](NC(=O)[C@H](CN)NC(=O)[C@@H](N)[C@@H](C)O)CNC(=O)[C@H]([C@@H](C)O)NC(=O)[C@H](CN)NC(=O)[C@H](CN)NC1=O	11
CC(C)C[C@@H]1NC(=O)[C@@H](Cc2ccccc2)NC(=O)[C@H](CCN=C(N)N)NC(=O)[C@@H](NC(=O)[C@H](CCN=C(N)N)NC(=O)[C@@H](N)[C@@H](C)O)CCNC(=O)[C@H]([C@@H](C)O)NC(=O)[C@H](CCN=C(N)N)NC(=O)[C@H](CCN=C(N)N)NC1=O	25
CC(C)C[C@@H]1NC(=O)[C@@H](Cc2ccccc2)NC(=O)[C@H](CCN)NC(=O)[C@@H](NC(=O)[C@H](CCN)NC(=O)[C@@H](N)[C@@H](C)O)CCNC(=O)[C@H]([C@@H](C)O)NC(=O)[C@H](CCCCN)NC(=O)[C@H](CCCCN)NC1=O	40
CC(C)C[C@@H]1NC(=O)[C@@H](Cc2ccccc2)NC(=O)[C@@H](NC(=O)[C@H](CCN)NC(=O)[C@H](CCN)NC(=O)[C@@H](N)[C@@H](C)O)CCNC(=O)[C@H]([C@@H](C)O)NC(=O)[C@H](CCN)NC(=O)[C@H](CCN)NC1=O	4
